molecular target: PARP2-QFRD (Homo sapiens, UniProt Q9UGN5-2 1-570, Q112R;F113D); test: fluorescence polarization; 60 mM KCl, 8 mM MgCl2; FP/FRET: 50 mM Tris-HCl pH 8, 50 mM NaCl, 1 mM MgCl2, 0.1 mM EDTA, 0.1 mM TCEP, 0.01% NP-40, temperature not stated; EMSA: 20 mM Tris pH 7.5, 1 mM EDTA, 1 mM DTT, 4 C; details: protein: recombinant; (HisTrap purified); label: 6-FAM on 5' end of bottom strand; blunt

>  <binder>
p18mer_fluorescein (dsDNA, 5'-phosphate on top strand) DNA 1: GGGTTGCGGCCGCTTGGG DNA 2: CCCAAGCGGCCGCAACCC

>  <Kd>
~240 nM

$$$$
